// reported Kd per item
Target: T1, cynomolgus monkey Trop-2-hFc (cynomolgus monkey, UniProt A0A2K5UE71 27-274)
T1 construct: also called cynoTrop-2; not shown: human Fc
T1 sequence: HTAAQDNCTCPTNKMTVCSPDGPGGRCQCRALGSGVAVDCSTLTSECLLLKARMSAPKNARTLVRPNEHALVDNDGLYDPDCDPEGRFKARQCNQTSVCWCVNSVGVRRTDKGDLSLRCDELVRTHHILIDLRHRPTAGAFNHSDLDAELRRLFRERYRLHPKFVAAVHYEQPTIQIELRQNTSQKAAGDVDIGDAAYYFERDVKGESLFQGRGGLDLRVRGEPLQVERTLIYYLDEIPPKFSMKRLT
Assay: SPR (Biacore T200), cynomolgus Trop-2-hFc captured by anti-human Fc, Fab as analyte
# number only, unit nM dropped from output

h7E6-WT recombinant Fab fragment (Fab, V domains shown, Recombinant Fab) VH: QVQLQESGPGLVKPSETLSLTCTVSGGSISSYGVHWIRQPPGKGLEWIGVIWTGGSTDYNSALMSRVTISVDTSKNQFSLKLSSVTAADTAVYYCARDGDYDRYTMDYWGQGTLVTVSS VL: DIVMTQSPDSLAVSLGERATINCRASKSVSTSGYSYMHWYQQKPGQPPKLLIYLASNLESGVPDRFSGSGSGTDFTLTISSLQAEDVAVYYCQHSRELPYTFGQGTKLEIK : 44
h7E6_SVGL recombinant Fab fragment (Fab, V domains shown, Recombinant Fab) VH: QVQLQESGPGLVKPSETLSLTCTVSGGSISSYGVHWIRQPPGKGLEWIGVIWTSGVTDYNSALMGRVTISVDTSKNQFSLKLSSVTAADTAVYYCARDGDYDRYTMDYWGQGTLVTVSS VL: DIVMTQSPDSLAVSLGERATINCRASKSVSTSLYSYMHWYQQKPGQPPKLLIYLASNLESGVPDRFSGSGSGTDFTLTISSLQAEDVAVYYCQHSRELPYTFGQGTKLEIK : 0.57
chimeric 7E6 recombinant Fab fragment (Fab, V domains shown, Recombinant chimeric Fab; also called mouse7E6) VH: QVQLKESGPGLVAPSQSLSITCTVSGFSLTSYGVHWVRQPPGKGLEWLGVIWTGGSTDYNSALMSRLSINKDNSKSQVFLKMNSLQTDDTAMYYCARDGDYDRYTMDYWGQGTSVTVSS VL: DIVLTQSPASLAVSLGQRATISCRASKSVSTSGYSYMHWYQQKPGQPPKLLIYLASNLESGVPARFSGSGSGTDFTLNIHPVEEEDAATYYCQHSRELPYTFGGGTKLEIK : 16.5
h7E6_SVG Fab (Fab, V domains shown, also called DG (h7E6_SVG)) VH: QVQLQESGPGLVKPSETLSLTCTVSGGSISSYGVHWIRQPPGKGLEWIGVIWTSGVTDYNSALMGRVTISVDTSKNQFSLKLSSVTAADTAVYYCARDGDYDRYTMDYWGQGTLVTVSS VL: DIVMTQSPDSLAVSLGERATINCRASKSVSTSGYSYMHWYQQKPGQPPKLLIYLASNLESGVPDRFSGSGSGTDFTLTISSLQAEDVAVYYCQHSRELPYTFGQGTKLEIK : 7

Query: Kd; subject: h7E6_L recombinant Fab fragment (Fab, V domains shown, Recombinant Fab) VH: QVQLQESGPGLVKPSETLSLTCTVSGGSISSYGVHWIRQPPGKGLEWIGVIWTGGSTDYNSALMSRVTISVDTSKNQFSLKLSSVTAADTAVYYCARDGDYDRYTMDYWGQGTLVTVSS VL: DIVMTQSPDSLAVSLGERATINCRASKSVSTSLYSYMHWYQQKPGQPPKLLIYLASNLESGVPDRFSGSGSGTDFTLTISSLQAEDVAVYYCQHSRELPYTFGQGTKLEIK
2.66
